B1: IMPA1 (parent)
chain: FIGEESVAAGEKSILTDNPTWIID

variants of: B1; assay: protein stability index of a GFP-peptide fusion (GPS, HEK-293T) (PSI 1-6); higher = more stable; details: c terminus: a fixed tail appended;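 note: lentivirally expressed fusions sorted by FACS into six bins by GFP to DsRed ratio, PSI derived from sequencing read proportions per bin multiplied by bin number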
Use Fulfilled when the recorded protein stability index is no lower than 2; use Not fulfilled when it is lower.

Field: example entries. Status: answers known.
residue change	class name
E11D	Fulfilled
T16R	Fulfilled
S6K	Not fulfilled
E5G	Fulfilled
D17F	Fulfilled

Asked: Hi team, for `A8P` , is the recorded protein stability index at or above 2?
Given back: Fulfilled

Asked: Hi team, for `A9C` , is the recorded protein stability index at or above 2?
Given back: Not fulfilled

Asked: Hi team, for `G3P` , is the recorded protein stability index at or above 2?
Given back: Not fulfilled

Asked: Hi team, for `E11F` , is the recorded protein stability index at or above 2?
Given back: Fulfilled

Asked: Hi team, for `D17C` , is the recorded protein stability index at or above 2?
Given back: Not fulfilled

Asked: Hi team, for `I23P` , is the recorded protein stability index at or above 2?
Given back: Fulfilled

Asked: Hi team, for `I23C` , is the recorded protein stability index at or above 2?
Given back: Fulfilled

Asked: Hi team, for `I23D` , is the recorded protein stability index at or above 2?
Given back: Fulfilled
